Record form. Attribute: kon. Fill in for each entry.
measurementTarget: T1, mouse EGFL7 (mEGFL7-CB-His) (mouse, UniProt Q9QXT5 22-275)
T1 sequence: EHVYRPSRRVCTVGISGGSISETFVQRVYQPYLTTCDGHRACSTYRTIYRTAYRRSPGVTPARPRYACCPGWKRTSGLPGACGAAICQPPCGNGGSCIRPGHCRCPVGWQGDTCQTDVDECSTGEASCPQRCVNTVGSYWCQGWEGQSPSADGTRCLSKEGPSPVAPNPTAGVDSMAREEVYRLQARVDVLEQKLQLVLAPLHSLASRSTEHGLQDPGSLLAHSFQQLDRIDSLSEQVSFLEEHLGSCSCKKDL
assayRemarks: SPR (Biacore), IgG over immobilized mEGFL7-CB at 37 C;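 note: IgG injected as twofold series from 0.5 to 1000 nM, 3 min association and 3.5 min dissociation, reference flow cell subtracted, kinetics fitted to 1:1 Langmuir model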
One number for each entry, in M⁻¹ s⁻¹.

Study these solved cases before continuing.
Query block: kon for 18F7.v8 IgG (antibody, V domains shown, IgG; Kabat numbering) VH: EVQLVESGGGLVQPGGSLRLSCAASGYTFIDYYMNWVRQAPGKGLEWVGDINLDNGGTHYNQKFKGRFTISRDKSKNTAYLQMNSLRAEDTAVYYCAREGVYHDYDDYAMDYWGQGTLVTVSS VL: DIQMTQSPSSLSASVGDRVTITCRTSQSLVHINGITYLHWYQQKPGKAPKLLIYRVSNRFSGVPSRFSGSGSGTDFTLTISSLQPEDFATYYCVQSTHVPLTFGQGTKVEIK ?
Result block: 98000

Query block: kon for 18F7.v6I IgG (antibody, V domains shown, IgG; Variant of 18F7.v6) VH: EVQLVESGGGLVQPGGSLRLSCAASGYTFIDYYMNWVRQAPGKGLEWVGDINLDNSGTHYNQKFKGRFTISRDKSKNTAYLQMNSLRAEDTAVYYCAREGVYHDYDDYAMDYWGQGTLVTVSS VL: DIQMTQSPSSLSASVGDRVTITCRTSQSLVHIQGITYLHWYQQKPGKAPKLLIYRVSNRFSGVPSRFSGSGSGTDFTLTISSLQPEDFATYYCGQSTHVPLTFGQGTKVEIK ?
Result block: 23000

Query block: kon for 18F7.v6K IgG (antibody, V domains shown, IgG; also called hu18F7.v6k; h18F7.v6k) VH: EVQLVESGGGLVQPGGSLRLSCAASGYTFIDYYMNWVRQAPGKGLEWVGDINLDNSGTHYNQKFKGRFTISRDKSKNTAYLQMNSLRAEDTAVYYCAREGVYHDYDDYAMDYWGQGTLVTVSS VL: DIQMTQSPSSLSASVGDRVTITCRTSQSLVHINAITYLHWYQQKPGKAPKLLIYRVSNRFSGVPSRFSGSGSGTDFTLTISSLQPEDFATYYCGQSTHVPLTFGQGTKVEIKR ?
Result block: 28000

Need kon for each of these binders.
1. 18F7.v5 IgG (antibody, V domains shown, IgG; Kabat numbering) VH: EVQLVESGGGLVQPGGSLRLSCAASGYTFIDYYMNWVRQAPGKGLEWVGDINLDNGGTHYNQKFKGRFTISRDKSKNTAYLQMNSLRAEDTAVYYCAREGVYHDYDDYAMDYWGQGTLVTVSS VL: DIQMTQSPSSLSASVGDRVTITCRTSQSLVHINGITYLHWYQQKPGKAPKLLIYRVSNRGSGVPSRFSGSGSGTDFTLTISSLQPEDFATYYCSQSTHVPLTFGQGTKVEIK
2. 18F7.v6 IgG (antibody, V domains shown, IgG; also called hu18F7.v6) VH: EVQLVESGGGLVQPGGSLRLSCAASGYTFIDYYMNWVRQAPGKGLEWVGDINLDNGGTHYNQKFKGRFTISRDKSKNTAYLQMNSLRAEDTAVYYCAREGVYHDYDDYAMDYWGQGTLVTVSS VL: DIQMTQSPSSLSASVGDRVTITCRTSQSLVHINGITYLHWYQQKPGKAPKLLIYRVSNRFSGVPSRFSGSGSGTDFTLTISSLQPEDFATYYCGQSTHVPLTFGQGTKVEIKR

Result block:
1. 73000
2. 50000
